Test: Metabolic stability in rat liver microsomes at 2.5 uM measured up to 20 mins
Format: ADME, Microsome
Measurement Context: read-out: Stability

[
  {
    "Compound": "CN(C)C(=O)N[C@H]1CC[C@H](CCN2CCN(c3cc(Cl)cc(Cl)c3)CC2)CC1",
    "Quantity Unit": "%",
    "remaining at 20 min, 2.5 µM": 73
  },
  {
    "Compound": "CN(C)C(=O)N[C@H]1CC[C@H](CCN2CCN(c3cccc(Cl)c3Cl)CC2)CC1.Cl [CARIPRAZINE HYDROCHLORIDE]",
    "Quantity Unit": "%",
    "remaining at 20 min, 2.5 µM": 93
  }
]
